Measured IC50 by item
Tested on: Triple negative breast cancer cell line CAL51
assay-comment: Cell Titer Glo proliferation assay, CAL51
Format: cell-based
assay-setup: Homo sapiens, CAL-51; CAL51 cell proliferation (Table 1); read-out: Act. Level

CNC(=O)c1ccc(Nc2nc(OC)c3c(-c4ccc5nc(C)oc5c4)c[nH]c3n2)c(Cl)c1 [Example 427]: < 100 nM
COc1cc(C2CCOCC2)ncc1Nc1nc(OC)c2c(-c3ccnc(F)c3)c[nH]c2n1 [Example 416]: 1000 to 10000 nM
Cc1nc2ccc(-c3c[nH]c4nc(Nc5ccc(C(=O)NCCO)cc5Cl)nc(OC5CCOCC5)c34)cc2o1 [Example 431]: < 100 nM
COc1nc(Nc2ccc3c(cnn3C)c2C)nc2[nH]cc(-c3ccncc3)c12 [Example 419]: 100 to 400 nM
COc1nc(Nc2ccc(C(=O)N(C)C)cc2C)nc2[nH]cc(-c3ccnc(F)c3)c12 [Example 409]: 400 to 1000 nM
COc1cc(C(=O)N(C)C)ccc1Nc1nc(OC)c2c(-c3ccc4c(C)noc4c3)c[nH]c2n1 [Example 408]: 100 to 400 nM

Could you tell me which IC50 is on file for CCCc1cc(C(=O)NC)ccc1Nc1nc(OC2CCOCC2)c2c(-c3ccc4nc(C)oc4c3)c[nH]c2n1 [Example 436] ?
< 100 nM

----------
Measured pIC50 by item
System: Triple negative breast cancer cell line CAL51
assay-comment: Cell Titer Glo proliferation assay, CAL51
Assay type: cell-based
assay-setup: Homo sapiens, CAL-51; CAL51 cell proliferation, Cell Titer Glo; read-out: Act. Level
pIC50: −log10 of the molar value.

Previously resolved entries follow.
COc1cc(C(=O)NCCO)ccc1Nc1nc(OC2CCOCC2)c2c(-c3cnn(C)c3)c[nH]c2n1: 6.40 to 7.00
COc1cc(C(=O)NC2COC2)ccc1Nc1nc(OC)c2c(-c3cnn(C)c3)c[nH]c2n1: 6.40 to 7.00
CNC(=O)c1ccc(-c2c[nH]c3nc(Nc4ccc(C(=O)NC5COC5)cc4OC)nc(OC4CCC4)c23)cn1: 5.00 to 6.00
CNC(=O)c1ccc(-c2c[nH]c3nc(Nc4ccc(C(=O)NC5CN(C)C5)cc4OC)nc(OC4CC4)c23)cc1: 6.40 to 7.00

Request the reported pIC50 associated with COc1cc(C(=O)NC2CN(C)C2)ccc1Nc1nc(OC(C)C)c2c(-c3ccc4nc(C)oc4c3)c[nH]c2n1
> 7.00
